TARGET_OR_SYSTEM: T1, recombinant CD3D&E protein (human CD3-his tag) (human, UniProt P04234 22-105; P07766 23-126, limits assumed)
T1 construct: Analyte in Biacore; also called CD3D&E-His; CD3d&ε-His
T1 sequence (P04234 22-105 limits assumed, chain 1 of 2): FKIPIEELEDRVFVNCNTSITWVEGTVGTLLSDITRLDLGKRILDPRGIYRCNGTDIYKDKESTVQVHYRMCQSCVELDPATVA
T1 sequence (P07766 23-126 limits assumed, chain 2 of 2): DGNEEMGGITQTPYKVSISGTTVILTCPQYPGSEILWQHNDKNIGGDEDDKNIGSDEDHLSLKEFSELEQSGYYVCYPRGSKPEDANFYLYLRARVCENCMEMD
METHOD_DESCRIPTION: SPR Biacore, Ab captured on Protein A;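 further: humanized antibodies on a Protein A chip, human CD3-his analyte flowed over in serial dilutions for 3 min, dissociation tracked 120–360 s on a Biacore T200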
ASSAY_ENDPOINT: pKd
Remember the convention: pKd equals -log10 of concentration in molar.

Examples with their reported pKd follow.
{"BINDER": "Hu153A6B1-11 (antibody, V domains shown, humanized mAb) VH: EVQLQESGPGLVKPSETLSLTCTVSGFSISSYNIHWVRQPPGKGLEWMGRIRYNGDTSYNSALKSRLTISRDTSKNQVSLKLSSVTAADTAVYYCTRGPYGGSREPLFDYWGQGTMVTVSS VL: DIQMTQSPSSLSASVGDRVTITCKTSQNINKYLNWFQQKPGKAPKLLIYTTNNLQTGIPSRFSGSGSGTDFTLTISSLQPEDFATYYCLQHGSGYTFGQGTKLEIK", "REPORTED": 7.94}
{"BINDER": "Hu153A6B1-8 (antibody, V domains shown, humanized mAb) VH: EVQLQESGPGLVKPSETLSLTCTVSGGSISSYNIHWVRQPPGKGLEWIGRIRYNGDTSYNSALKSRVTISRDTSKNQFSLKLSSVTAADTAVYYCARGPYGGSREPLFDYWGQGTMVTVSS VL: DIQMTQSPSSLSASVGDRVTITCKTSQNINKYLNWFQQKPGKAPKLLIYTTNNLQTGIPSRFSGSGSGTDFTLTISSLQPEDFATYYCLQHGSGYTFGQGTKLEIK", "REPORTED": 7.31}

Next item in the queue.
// query pKd value for entry Hu192A7B9-16 (antibody, V domains shown, humanized mAb) VH: EVQLQESGPGLVKPSETLSLTCTVSGGSISSYNVHWVRQPPGKGLEWMGRMRYNGDTSYNSALKSRLTISRDTSKNQFSLKLSSVTAADTAVYYCTRGPRGGYYSALFDYWGQGTMVTVSS VL: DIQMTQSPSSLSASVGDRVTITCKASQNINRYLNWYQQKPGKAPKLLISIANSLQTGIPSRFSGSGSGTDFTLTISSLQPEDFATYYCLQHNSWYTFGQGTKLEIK
6.83
